The reported numbers originate from patent US20210323977A1.

Molecular target: human TLR9 (Homo sapiens)
Sequence (Q9NR96 26-1032): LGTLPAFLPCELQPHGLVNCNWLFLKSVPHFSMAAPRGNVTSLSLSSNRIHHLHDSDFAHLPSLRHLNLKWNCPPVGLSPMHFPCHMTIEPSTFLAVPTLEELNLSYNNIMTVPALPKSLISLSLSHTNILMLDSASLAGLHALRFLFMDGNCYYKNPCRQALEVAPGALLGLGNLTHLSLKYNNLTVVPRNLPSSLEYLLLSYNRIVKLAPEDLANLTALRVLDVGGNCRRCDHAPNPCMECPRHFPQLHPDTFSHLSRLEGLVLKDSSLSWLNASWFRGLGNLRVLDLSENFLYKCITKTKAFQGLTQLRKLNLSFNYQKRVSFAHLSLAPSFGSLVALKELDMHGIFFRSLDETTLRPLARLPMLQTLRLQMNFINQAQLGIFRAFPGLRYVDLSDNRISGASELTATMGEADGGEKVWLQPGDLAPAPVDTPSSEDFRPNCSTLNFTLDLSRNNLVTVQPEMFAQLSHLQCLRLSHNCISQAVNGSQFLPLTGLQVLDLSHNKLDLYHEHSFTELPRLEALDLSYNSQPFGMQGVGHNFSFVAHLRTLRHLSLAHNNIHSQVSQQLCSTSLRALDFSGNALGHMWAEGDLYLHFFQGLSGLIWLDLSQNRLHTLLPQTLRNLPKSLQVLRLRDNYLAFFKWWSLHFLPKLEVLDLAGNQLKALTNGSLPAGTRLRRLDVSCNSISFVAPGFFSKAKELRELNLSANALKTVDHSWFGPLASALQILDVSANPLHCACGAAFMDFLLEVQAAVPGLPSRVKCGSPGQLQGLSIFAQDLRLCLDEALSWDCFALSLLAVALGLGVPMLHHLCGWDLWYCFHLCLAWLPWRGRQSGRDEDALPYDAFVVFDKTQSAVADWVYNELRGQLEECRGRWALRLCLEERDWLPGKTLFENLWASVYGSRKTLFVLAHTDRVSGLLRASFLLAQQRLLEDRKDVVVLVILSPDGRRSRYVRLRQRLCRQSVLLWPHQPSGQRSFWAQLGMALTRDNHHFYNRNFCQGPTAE
Assay: HEK293-Blue-hTLR-9 cells assay
Conditions: HEK293-Blue-hTLR9 cells, SEAP reporter, ODN2006 stimulation, 20 hrs
# maps each entry to its pIC50
To interpret pIC50, take it as minus log10 of a concentration measured in moles per litre.

Worked examples, 2 compounds total:
Q. Fill in: pIC50 of N#Cc1ccc(N2CC(C(=O)NC[C@H]3CNCCO3)C3(CC3)C2)c2nccnc12 (single isomer, unassigned) [Example 70A] is ___
A. 5.16

Q. Fill in: pIC50 of CN1CCC(NC(=O)[C@@H]2CN(c3ccc(C#N)c4ncccc34)C[C@H]2C(F)F)CC1 (relative stereo) [Example 40] is ___
A. 5.16

New cases:
Q. Fill in: pIC50 of CC[C@@H]1CN(c2ccc(C#N)c3ncccc23)C[C@H]1C(=O)NC1CCN(C)CC1 (relative stereo) [Example 29] is ___
A. 5.16
